List of pKa values.
details: basic group
quantity_kind: pKa

compound: CCN(CC)CC(=O)Nc1ccc(C)cc1
quantitative_readout: 8.13
//
compound: C=C(C)C(=O)OC(C)CN(CC)CC (stereo unspecified)
quantitative_readout: 8.65
//
compound: c1ccc(CSc2ccncc2)cc1
quantitative_readout: 5.41
//
compound: CCn1nc(-c2ccccc2)sc1=N
quantitative_readout: 6.1
//
compound: NCC[S-]
quantitative_readout: 10.7
//
compound: C#CC(CC)(CC)N(CC)C(C)C
quantitative_readout: 8.2
//
compound: CC1CCCN(C(C)C=C(c2cccs2)c2cccs2)C1 (stereo unspecified)
quantitative_readout: 8.28
//
compound: NCC=C(Cl)Cl
quantitative_readout: 9.3
//
compound: [O-]c1ccncc1
quantitative_readout: 11.1
//
compound: CCCCN(CCCC)c1ccccc1
quantitative_readout: 6.41
//
compound: CCc1ccc(OC)c(C(=O)NC[C@H]2CCCN2CC)c1[O-]
quantitative_readout: 9.54
//
compound: CCN1CCC=C1C
quantitative_readout: 11.9
//
compound: Cn1ccc(=N)c2ccccc21
quantitative_readout: 12.4
//
compound: CN(C)c1ccc(NC(=O)/C=N/O)cc1
quantitative_readout: 4.94
//
compound: OCCCCc1ccncc1
quantitative_readout: 6.01
//
compound: Oc1cccc2nnccc12
quantitative_readout: 1.92
//
compound: Cc1ccccc1C(=NCCN(C)C)c1ccccc1C
quantitative_readout: 8.5
//
compound: NC(=O)Cc1ccccn1
quantitative_readout: 4.34
//
compound: SCc1ncc[nH]1
quantitative_readout: 6.37
//
compound: CN(C)CCOCC[NH+](C)C
quantitative_readout: 8.21
//
compound: CCc1cnc(C(=O)[O-])cc1CC
quantitative_readout: 6.58
//
compound: CN(C(=O)c1ccccc1)c1ccccn1
quantitative_readout: 1.44
//
compound: CCCN(C)C
quantitative_readout: 9.62
//
compound: Cc1nc2ccccc2n1C
quantitative_readout: 6.55
//
compound: Cc1cnc2ccccc2n1
quantitative_readout: 0.95
//
compound: Nc1ccccc1[N+](=O)[O-]
quantitative_readout: -0.24
//
compound: CCN(C)CCCNC(=O)/C=N/[O-]
quantitative_readout: 9.97
//
compound: Cc1ccc(Cl)cc1/C(=N/CCCN(C)C)c1ccccc1
quantitative_readout: 8.8
//
compound: N/C(C/C(N)=N/O)=N\O
quantitative_readout: 4.77
//
compound: CSc1ncnc2[nH]ncc12
quantitative_readout: 1
//
compound: C=CC(=O)OCCN(CC)CC
quantitative_readout: 8.55
//
compound: Cc1nccc2c1[nH]c1ccccc12
quantitative_readout: 6.55
//
compound: C=CCN(C)C
quantitative_readout: 8.72
//
compound: [S-]c1ncnc2nc[nH]c12
quantitative_readout: 7.74
//
compound: C[C@H]1C[C@@H]2CCC[C@@H]2N1C
quantitative_readout: 10.1
//
compound: Cc1ccc2[nH]c(CO)nc2c1
quantitative_readout: 5.64
//
compound: Nc1ccc2cnc3ccccc3c2c1
quantitative_readout: 6.88
//
compound: CC1CCCC/C1=N\CC(=O)[O-] (stereo unspecified)
quantitative_readout: 9.64
//
compound: Brc1cnc2ccccc2c1
quantitative_readout: -0.44
//
compound: CN(C)[C@H]1CCC[C@@H]1C#N
quantitative_readout: 7.02
//
compound: CCC(N)C(=O)[O-] (stereo unspecified)
quantitative_readout: 9.67
//
compound: Cn1ncc2c(NCc3ccco3)ncnc21
quantitative_readout: 3.8
//
compound: Oc1ccc2nc3ccccc3nc2c1
quantitative_readout: 2.6
//
compound: Nc1ccc(Br)cc1Br
quantitative_readout: 2.3
//
compound: N[C@H]1CC(=O)NC1=O
quantitative_readout: 9
//
compound: CCCCCCN(CC(C)O)CC(O)CC (stereo unspecified)
quantitative_readout: 8.9
//
compound: CC1=C(CC(C)NCC(O)c2ccc(Br)cc2)CCC1(C)C (stereo unspecified)
quantitative_readout: 8.57
//
compound: N=c1c2ccccc2[nH]c2ccccc12
quantitative_readout: 9.99
//
compound: Oc1ccc(Cl)cc1CN1CCOCC1
quantitative_readout: 6.78
//
compound: Cn1nnnc1N
quantitative_readout: 1.82
//
compound: Nc1ccc(S(=O)(=O)Nc2cccnn2)cc1
quantitative_readout: 1.3
//
compound: NC(=O)c1cncc2ccccc12
quantitative_readout: 3.8
//
compound: CC(=O)Nc1ccc2nc3ccccc3cc2c1
quantitative_readout: 4.7
//
compound: C#CCCCCN(C)C
quantitative_readout: 9.24
//
compound: CN1CCCC1c1cncc2[nH]c3ccccc3c12 (stereo unspecified)
quantitative_readout: 8.02
//
compound: C=O
quantitative_readout: 1.15
//
compound: Cn1cccn1
quantitative_readout: 2.48
//
compound: Cc1nc2c(C)ccc([N+](=O)[O-])c2c(NCCC[NH+](C)C)c1C
quantitative_readout: 6.67
//
compound: Cc1ccc2c(c1)sc(-c1ccc(N(C)C)cc1)[n+]2C
quantitative_readout: 2.69
//
compound: Clc1ccc(Nc2ccccc2)cc1
quantitative_readout: 0
//
compound: Nc1cn[nH]c1
quantitative_readout: 5.57
//
compound: C1CCc2nnc3c(c2CC1)CCCC3
quantitative_readout: 6.03
//
compound: COc1cccc(C2NCCS2)c1 (stereo unspecified)
quantitative_readout: 5.12
//
compound: Nc1ccc2nccnc2c1
quantitative_readout: 2.95
//
compound: Nc1ccnc2c1ncn2CCOCP(=O)(O)O
quantitative_readout: 5.49
//
compound: CC1CCN1 (stereo unspecified)
quantitative_readout: 11
